- System: Yeast
- Assay explanation: Antimicrobial Effectiveness Testing (USP 24) of preserved cosmetic formulations, count of yeast
- Format: cell-based, Candida albicans ATCC 10231
- Experimental setup: Example 2, oil in water emulsion with ionic emulsifier; 14 days
Observed property: Yeast, 14 days

compound=O=[N+]([O-])C(Br)(CO)CO result="4.0 · 10^2"
compound="CCCCCCCCCCCC(=O)NC(CCCNC(=N)N)C(=O)OCC.Cl (centres unmarked)" result="1.0 · 10^2"
compound=ClC=CC[N+]12CN3CN(CN(C3)C1)C2.[Cl-] result="<9.9 · 10^1"
compound=OCCOc1ccccc1 result="<9.9 · 10^1"

Req: Form entry - test system: Yeast; read-out: Yeast, 14 days; compound: `CC1(C)C(=O)N(CO)C(=O)N1CO`
Resp: <9.9 · 10^1

----------
- Test system: Yeast
- Assay explanation: Antimicrobial Effectiveness Testing (USP 24) of preserved cosmetic formulations, count of yeast
- Format: cell-based, Candida albicans ATCC 10231
- Experimental setup: Example 1, oil in water emulsion with non-ionic surfactant; 14 days
- Experimental: Procedure to Evaluate the Efficacv of the Preservative System […] The level of the microbial contamination is determined at 0 hours and after 7 days, 14 days and 28 days. The number of colonies is determined by dilution in buffer peptone with the appropriate neutraliser agent of the preservative. […]
What Yeast, 14 days was measured for each of the following?

compound=ClC=CC[N+]12CN3CN(CN(C3)C1)C2.[Cl-] target_desc=Yeast result="<9.9 · 10^1"

Please state Yeast, 14 days for every compound in the list that follows.
1. CC1(C)C(=O)N(CO)C(=O)N1CO
2. OCCOc1ccccc1
3. CCCCCCCCCCCC(=O)NC(CCCNC(=N)N)C(=O)OCC.Cl (centres unmarked)
4. O=[N+]([O-])C(Br)(CO)CO

Resp:
1: <9.9 · 10^1; 2: <9.9 · 10^1; 3: 4.0 · 10^2; 4: <9.9 · 10^1
